Documented IC50 across a set of compounds
target: Itk (Homo sapiens, UniProt Q08881); construct: Kinases are expressed as either kinase domains or full length constructs; made in house; experiment: Kinase inhibition assay (33P transfer), Itk; format: biochemical; conditions: Table 3; read-out: Itk-1
Sequence (Q08881 whole entry, species assumed, the tested form may be a part): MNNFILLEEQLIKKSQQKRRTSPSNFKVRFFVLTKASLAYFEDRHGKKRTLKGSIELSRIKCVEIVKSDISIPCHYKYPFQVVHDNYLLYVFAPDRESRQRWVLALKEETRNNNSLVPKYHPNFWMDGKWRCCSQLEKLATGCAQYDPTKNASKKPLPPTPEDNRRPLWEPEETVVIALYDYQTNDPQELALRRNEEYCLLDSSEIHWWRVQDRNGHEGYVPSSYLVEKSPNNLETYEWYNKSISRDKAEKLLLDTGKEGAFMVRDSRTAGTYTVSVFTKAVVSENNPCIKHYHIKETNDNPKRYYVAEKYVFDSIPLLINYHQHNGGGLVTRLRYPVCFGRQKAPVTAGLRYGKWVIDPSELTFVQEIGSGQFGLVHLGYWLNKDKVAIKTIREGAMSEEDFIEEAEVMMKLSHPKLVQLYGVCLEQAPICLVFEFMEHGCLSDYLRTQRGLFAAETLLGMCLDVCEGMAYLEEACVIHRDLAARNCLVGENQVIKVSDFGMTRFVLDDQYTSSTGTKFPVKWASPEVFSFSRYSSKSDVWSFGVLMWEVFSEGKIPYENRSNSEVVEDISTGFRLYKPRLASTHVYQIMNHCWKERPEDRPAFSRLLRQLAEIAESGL
readout-kind: IC50

smiles-notation: COc1cc(Nc2ncnc(Nc3nnc(-c4ccccc4)[nH]3)n2)cc(OC)c1OC
readout-kind: IC50
reading: > 10.7 µM

smiles-notation: FC(F)C(F)(F)Oc1cccc(Nc2ncnc(-c3ccnc(Cl)c3)n2)c1
readout-kind: IC50
reading: > 11.3 µM

smiles-notation: OCc1ccc(Nc2ncnc(Nc3cc(-c4ccco4)n[nH]3)n2)cc1
readout-kind: IC50
reading: 1.14 to 6.87 µM

smiles-notation: COc1cc(Nc2ncnc(-n3c(Nc4cc(OC)c(OC)c(OC)c4)nc4ccccc43)n2)cc(OC)c1OC
readout-kind: IC50
reading: > 8.04 µM

* * *

Below are IC50 values measured for Src (Homo sapiens).
readout-kind: IC50

molecule: COc1cc(Nc2ncnc(-n3c(NC4CCCc5ccccc54)nc4ccccc43)n2)cc(OC)c1OC (centres unmarked) [Compound 587]
reading: > 8.59 µM

molecule: COc1cc(Nc2ncnc(Nc3ccc4c(cnn4Cc4ccccc4)c3)n2)cc(OC)c1OCCN1CCOCC1 [Compound 559]
reading: < 0.687 µM

molecule: COc1cc(Nc2ncnc(-n3c(NCC(C)C)nc4ccccc43)n2)cc(OC)c1OC [Compound 407]
reading: < 0.89 µM

molecule: COc1cc(Nc2ncnc(-c3ccccc3)n2)cc(OC)c1OC [Compound 970]
reading: > 13.3 µM

molecule: NC(=O)c1cccc(Nc2ncnc(-n3c(N)nc4ccccc43)n2)c1 [Compound 395]
reading: 10.1 to 13 µM

molecule: COc1cc(Nc2ncnc(-n3ccc4cc(OCc5ccccc5)ccc43)n2)cc(OC)c1OC [Compound 200]
reading: > 9.31 µM

molecule: COc1cc(Nc2ncnc(Nc3ccc(Br)cc3F)n2)cc(OC)c1OC [Compound 41]
reading: 0.888 to 5.33 µM

molecule: COc1cc(Nc2ncnc(Nc3ccc4c(c3)Cc3ccccc3-4)n2)cc(OC)c1OC [Compound 95]
reading: > 10.2 µM

molecule: COc1cc(Nc2ncnc(-c3c(O)[nH]c4ccccc34)n2)cc(OC)c1OC [Compound 380]
reading: > 11.4 µM

molecule: COc1cc(Nc2ncnc(Nc3cnc4ccccc4c3)n2)cc(OC)c1OC [Compound 99]
reading: 0.989 to 5.93 µM

molecule: COc1cc(Nc2ncnc(-c3cccnc3NC(C)C)n2)cc(OC)c1OC [Compound 1089]
reading: 1.01 to 6.05 µM

molecule: COc1cc(Nc2ncnc(-c3ccnc(NCCCO)c3)n2)cc(OC)c1OC [Compound 180]
reading: > 10.9 µM

molecule: COc1cc(Nc2ncnc(-n3c(NCc4ccccc4C)nc4ccccc43)n2)cc(OC)c1OC [Compound 511]
reading: > 9.04 µM

molecule: COc1cc(Nc2ncnc(Nc3ccc(C)c(NS(C)(=O)=O)c3)n2)cc(OC)c1OC [Compound 305]
reading: < 0.869 µM

molecule: COc1cc(Nc2ncnc(NC(=O)Nc3ccccc3)n2)cc(OC)c1OC [Compound 852]
reading: > 11.4 µM

molecule: COc1cc(Nc2ncnc(Nc3ccc4c(ccn4Cc4ccccc4)c3)n2)cc(OC)c1OC [Compound 178]
reading: 0.829 to 4.97 µM

molecule: COc1ccc(CNc2nc3ccccc3n2-c2ncnc(Nc3cc(OC)c(OC)c(OC)c3)n2)cc1 [Compound 1037]
reading: > 8.76 µM

molecule: O=C1OCc2ccc(Nc3ncnc(Nc4cc(-c5ccco5)n[nH]4)n3)cc21 [Compound 364]
reading: > 12 µM

molecule: COc1cc(Nc2ncnc(-n3ccc4ccccc43)n2)cc(OC)c1OC [Compound 185]
reading: > 11.9 µM

molecule: COc1cc(Nc2ncnc(-n3c(Nc4cc(C)n[nH]4)nc4ccccc43)n2)cc(OC)c1OC [Compound 401]
reading: 0.845 to 5.07 µM

* * *

molecular target: Zap-70 (Homo sapiens); construct: Kinases are expressed as either kinase domains or full length constructs; made in house; experiment: Kinase inhibition assay (33P transfer), Zap-70; format: biochemical; conditions: read-out: Zap-1
Sequence (P43403 whole entry, species assumed, the tested form may be a part): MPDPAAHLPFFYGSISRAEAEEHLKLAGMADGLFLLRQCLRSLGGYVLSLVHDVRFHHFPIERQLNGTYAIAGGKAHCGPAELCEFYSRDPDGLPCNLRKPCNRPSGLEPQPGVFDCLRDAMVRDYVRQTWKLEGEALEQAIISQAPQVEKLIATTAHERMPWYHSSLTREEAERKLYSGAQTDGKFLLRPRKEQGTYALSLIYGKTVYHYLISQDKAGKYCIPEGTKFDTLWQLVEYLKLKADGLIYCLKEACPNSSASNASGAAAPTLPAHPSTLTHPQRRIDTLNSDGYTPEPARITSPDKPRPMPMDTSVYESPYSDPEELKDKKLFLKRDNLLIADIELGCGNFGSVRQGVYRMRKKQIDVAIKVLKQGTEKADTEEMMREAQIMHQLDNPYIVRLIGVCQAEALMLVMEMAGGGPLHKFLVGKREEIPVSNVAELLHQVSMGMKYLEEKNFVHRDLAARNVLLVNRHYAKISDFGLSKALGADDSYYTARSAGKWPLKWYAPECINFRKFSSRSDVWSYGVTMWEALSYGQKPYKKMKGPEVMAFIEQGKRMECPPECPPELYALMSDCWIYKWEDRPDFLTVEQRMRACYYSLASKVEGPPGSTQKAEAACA

compound: COc1cc(Nc2ncnc(-n3c(C)nc4ccccc43)n2)cc(OC)c1OC [Compound 691]
IC50: > 11.5 µM
--
compound: COc1ccc(Nc2ncnc(NC[C@@H]3CCCO3)n2)cc1OC [Compound 790]
IC50: > 13.6 µM
--
compound: CCOC(=O)N1CCC(Nc2ncnc(N3CCCc4cc(C)ccc43)n2)CC1 [Compound 765]
IC50: > 11.3 µM
--
compound: CCN(CC)CCNc1ncnc(N(C)c2cccc(Cl)c2)n1 [Compound 745]
IC50: > 13.4 µM
--
compound: CCc1ccc(Nc2ncnc(-n3c(N)nc4ccccc43)n2)cc1 [Compound 657]
IC50: 1.21 to 7.24 µM
--
compound: CN(c1cccc(Cl)c1)c1ncnc(Nc2ccc(CC(=O)O)cc2)n1 [Compound 705]
IC50: > 12.2 µM
--
compound: COc1cc(Nc2ncnc(-c3cccnc3NCCN3CCCCC3)n2)cc(OC)c1OC [Compound 1079]
IC50: > 9.67 µM
--
compound: COc1cc(Nc2ncnc(-n3c(NCc4ccc(C)cc4)nc4ccccc43)n2)cc(OC)c1OC [Compound 516]
IC50: > 9.04 µM
--
compound: Cc1cccc(Nc2ncnc(N(C)c3cccc(Cl)c3)n2)c1 [Compound 709]
IC50: > 13.8 µM
--
compound: COc1cc(Nc2ncnc(Nc3ccc(Cl)c4ccccc34)n2)cc(OC)c1OC [Compound 1031]
IC50: > 10.3 µM
--
compound: COc1cc(Nc2ncnc(-n3c(Nc4ccccc4C(C)C)nc4ccccc43)n2)cc(OC)c1OC [Compound 1049]
IC50: > 8.8 µM
--
compound: CN(c1cccc(Cl)c1)c1ncnc(Nc2ccc3[nH]ccc3c2)n1 [Compound 714]
IC50: > 12.8 µM

* * *

biological target: Src (Homo sapiens, UniProt P12931)
Sequence (P12931 whole entry, species assumed): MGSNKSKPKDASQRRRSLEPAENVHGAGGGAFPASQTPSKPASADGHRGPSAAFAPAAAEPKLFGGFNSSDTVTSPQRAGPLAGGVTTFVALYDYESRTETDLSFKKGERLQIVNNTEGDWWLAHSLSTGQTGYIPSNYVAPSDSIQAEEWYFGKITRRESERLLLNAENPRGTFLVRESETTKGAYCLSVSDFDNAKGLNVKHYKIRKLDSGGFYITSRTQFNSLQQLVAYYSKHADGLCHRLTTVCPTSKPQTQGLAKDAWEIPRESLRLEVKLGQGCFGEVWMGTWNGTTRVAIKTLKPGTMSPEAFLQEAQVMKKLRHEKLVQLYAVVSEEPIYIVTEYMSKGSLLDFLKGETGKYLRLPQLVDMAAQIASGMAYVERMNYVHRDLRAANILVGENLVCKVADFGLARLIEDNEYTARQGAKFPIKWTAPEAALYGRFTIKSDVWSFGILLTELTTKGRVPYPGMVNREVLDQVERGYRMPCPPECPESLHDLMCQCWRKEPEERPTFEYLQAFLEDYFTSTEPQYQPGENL
Documented IC50 across a set of compounds
readout-kind: IC50

compound: COc1cc(Nc2ncnc(Nc3cccc4ccccc34)n2)cc(OCCN2CCOCC2)c1OC
readout-kind: IC50
reading: < 0.796 µM
//
compound: COc1cc(Nc2ncnc(N(C)c3cccc4ccccc34)n2)cc(OC)c1OC
readout-kind: IC50
reading: 0.958 to 5.75 µM
//
compound: COc1cc(Nc2ncnc(Nc3ccc(Cl)cc3F)n2)cc(OC)c1OC
readout-kind: IC50
reading: 0.986 to 5.91 µM
//
compound: COc1cc(Nc2ncnc(Nc3ccc(C)cc3)n2)cc(OC)c1OC
readout-kind: IC50
reading: < 1.09 µM
//
compound: COc1cc(Nc2ncnc(-c3cccnc3NCc3ccccc3F)n2)cc(OC)c1OC
readout-kind: IC50
reading: > 9.73 µM
//
compound: COCCOc1ccc(Nc2ncnc(Nc3ccc4[nH]ccc4c3)n2)cc1OCCOC
readout-kind: IC50
reading: 0.888 to 5.33 µM
//
compound: COc1cc(Nc2ncnc(N(CC(=O)O)c3ccc4c(c3)OCO4)n2)cc(OC)c1OC
readout-kind: IC50
reading: > 9.88 µM
//
compound: COc1cc(Nc2ncnc(Nc3cc(-c4ccc(Cl)cc4)n[nH]3)n2)cc(OC)c1OC
readout-kind: IC50
reading: 0.881 to 5.29 µM
//
compound: COc1cc(Nc2ncnc(-n3c(NCc4ccc(F)cc4Cl)nc4ccccc43)n2)cc(OC)c1OC
readout-kind: IC50
reading: > 8.4 µM
//
compound: COc1cc(Nc2ncnc(N3CCCc4ccc(C(F)(F)F)cc43)n2)cc(OC)c1OC
readout-kind: IC50
reading: > 9.75 µM
//
compound: COc1cc(Nc2ncnc(Nc3ccc(C)c(O)c3)n2)cc(OC)c1OC
readout-kind: IC50
reading: < 1.04 µM
//
compound: COc1cc(Nc2ncnc(Nc3ccc4c(c3)OCO4)n2)cc(OC)c1OC
readout-kind: IC50
reading: < 1.01 µM
//
compound: COc1cc(Nc2ncnc(Nc3ccccc3)n2)cc(OC)c1OC
readout-kind: IC50
reading: 1.13 to 6.79 µM
//
compound: COc1ccc(Nc2ncnc(-n3c(N)nc4ccccc43)n2)cc1O
readout-kind: IC50
reading: 10 to 12.9 µM
//
compound: COc1cc(Nc2ncnc(Nc3ccc(C(C)C)cc3)n2)cc(OC)c1OC
readout-kind: IC50
reading: < 1.01 µM
//
compound: COc1cc(Nc2ncnc(-n3c(NCc4cccc(F)c4)nc4ccccc43)n2)cc(OC)c1OC
readout-kind: IC50
reading: 6.98 to 8.97 µM
//
compound: COc1cc(Nc2ncnc(N(C)c3cccc(Cl)c3)n2)cc(OC)c1OC
readout-kind: IC50
reading: 0.995 to 5.97 µM
//
compound: c1coc(-c2cc(Nc3ncnc(Nc4ccc(N5CCOCC5)cc4)n3)[nH]n2)c1
readout-kind: IC50
reading: > 11.1 µM
//
compound: COc1cc(Nc2ncnc(N3c4ccccc4CC3C)n2)cc(OC)c1OC (centres unmarked)
readout-kind: IC50
reading: 1.02 to 6.1 µM
//
compound: COc1cc(Nc2ncnc(Nc3ccc(N)cc3)n2)cc(OC)c1OC
readout-kind: IC50
reading: 9.5 to 12.2 µM
//
compound: COc1cc(Nc2ncnc(-n3c(NCc4ccccn4)nc4ccccc43)n2)cc(OC)c1OCCn1ccnn1
readout-kind: IC50
reading: > 7.96 µM
//
compound: COc1ccc(Nc2nc3ccccc3n2-c2ncnc(Nc3cc(OC)c(OC)c(OC)c3)n2)cc1
readout-kind: IC50
reading: > 9.01 µM
//
compound: Nc1nc2ccccc2n1-c1ncnc(Nc2ccc(N3CCOCC3)cc2)n1
readout-kind: IC50
reading: > 11.6 µM
//
compound: COc1cc(Nc2ncnc(Nc3ccc(F)c(Cl)c3)n2)cc(OC)c1OC
readout-kind: IC50
reading: < 0.986 µM
//
compound: CCC(Nc1nc2ccccc2n1-c1ncnc(Nc2cc(OC)c(OC)c(OC)c2)n1)c1ccccc1 (centres unmarked)
readout-kind: IC50
reading: 0.782 to 4.69 µM
//
compound: COc1cc(Nc2ncnc(Nc3ccc(O)cc3Cl)n2)cc(OC)c1OC
readout-kind: IC50
reading: 0.991 to 5.94 µM
//
compound: COc1cc(Nc2ncnc(-n3c(N[C@@H](C)c4ccccc4)nc4ccccc43)n2)cc(OC)c1OC
readout-kind: IC50
reading: 0.804 to 4.82 µM
//
compound: COc1cc(Nc2ncnc(-n3c(NCc4ccc(F)cc4)nc4ccccc43)n2)cc(OC)c1OC
readout-kind: IC50
reading: > 8.97 µM
//
compound: COc1cc(Nc2ncnc(N[C@H](CO)c3ccccc3)n2)cc(OC)c1OC
readout-kind: IC50
reading: 1.01 to 6.04 µM
//
compound: COc1cc(Nc2ncnc(-n3c(NC(CCO)c4ccccc4)nc4ccccc43)n2)cc(OC)c1OC (centres unmarked)
readout-kind: IC50
reading: < 0.758 µM
//
compound: COc1cc(Nc2ncnc(-n3c(N)nc4ccccc43)n2)cc(OC)c1OC
readout-kind: IC50
reading: 1.02 to 6.1 µM
//
compound: COc1ccc(Nc2ncnc(-n3c(N)nc4ccccc43)n2)cc1
readout-kind: IC50
reading: 7.2 to 10.5 µM
